tested on: Penicillium cyclopium; assay: Fungicidal effect on infected agar nutrient media, colony diameter; format: cell-based; details: 10 ppm; 7th day after treatment; untreated 26.5

COMPOUND	Diameter of colony (mm)
CC(Cl)COP1(=S)OC(C)C(C)S1 (stereo not shown) [Compound 40]	20.0
CC(I)C(C)OP1(=S)OC(C)C(C)S1 (stereo not shown) [Compound 45]	15.5
CC(C)COP1(=S)OC(C)CS1 (stereo not shown) [Compound 52]	20.0
CC1OP(=S)(OCCBr)SC1C (stereo not shown) [Compound 17]	14.2
S=P1(OCCS)OCCS1 (stereo not shown) [Compound 56]	18.1
S=P1(OCCCl)OCCS1 (stereo not shown) [Compound 1]	20.0
CCCCC(C)OP1(=S)OC(C)C(C)S1 (stereo not shown) [Compound 65]	19.1
CC(I)COP1(=S)OC(C)CS1 (stereo not shown) [Compound 24]	15.0
CCCCOP1(=S)OC(C)CS1 (stereo not shown) [Compound 60]	19.9
CCCOP1(=S)OCC(CC)S1 (stereo not shown) [Compound 51]	18.7
CC(I)COP1(=S)OCCS1 (stereo not shown) [Compound 15]	15.5
CC(Br)COP1(=S)OC(C)CS1 (stereo not shown) [Compound 23]	15.8
CC(CBr)OP1(=S)OC(C)C(C)S1 (stereo not shown) [Compound 35]	14.7
CCCCOP1(=S)OCC(C)S1 (stereo not shown) [Compound 61]	19.0
CCCOP1(=S)OC(C)CS1 (stereo not shown) [Compound 47]	20.1
CC(I)COP1(=S)OC(C)C(C)S1 (stereo not shown) [Compound 42]	17.2

* * *

tested on: Alternaria tenuis; assay: Fungicidal effect on infected agar nutrient media, colony diameter; type: cell-based; settings: 10 ppm; 5th day after treatment; untreated control 36.8

COMPOUND	TEST TARGET	Diameter of colony (mm)
S=P1(OCCBr)OCCS1 (stereo not drawn)	Alternaria tenuis	26.1
CC(Cl)COP1(=S)OC(C)C(C)S1 (stereo not drawn)	Alternaria tenuis	21.7
CC1CSP(=S)(OC(C)C(C)Br)O1 (stereo not drawn)	Alternaria tenuis	24.5
CC(I)COP1(=S)OC(C)C(C)S1 (stereo not drawn)	Alternaria tenuis	20.4
CC(Br)COP1(=S)OCCS1 (stereo not drawn)	Alternaria tenuis	21.3
CC(C)OP1(=S)OCCS1 (stereo not drawn)	Alternaria tenuis	26.0
CC1COP(=S)(OC(C)C(C)Br)S1 (stereo not drawn)	Alternaria tenuis	27.4
CC1COP(=S)(OCCCl)S1 (stereo not drawn)	Alternaria tenuis	25.5
CC(CBr)OP1(=S)OC(C)CS1 (stereo not drawn)	Alternaria tenuis	25.0
CC1CSP(=S)(OC(C)C(C)Cl)O1 (stereo not drawn)	Alternaria tenuis	21.9
CC(I)C(C)OP1(=S)OCCS1 (stereo not drawn)	Alternaria tenuis	26.7
CCCCC(C)OP1(=S)OC(C)C(C)S1 (stereo not drawn)	Alternaria tenuis	25.3

* * *

tested on: Sclerotinia sclerotinia; experiment: Fungicidal effect on infected agar nutrient media, colony diameter; assay type: cell-based; details: 10 ppm; 3rd day after treatment; untreated control 41.7
Criterion: Diameter of colony (mm) strictly less than 30 mm. Met: 1.0. Not met: 0.0.

COMPOUND	TEST TARGET	LABEL VALUE
CC(Br)C(C)OP1(=S)OCCS1 (stereo not shown)	Sclerotinia sclerotinia	1.0
CC(I)COP1(=S)OCC(C)S1 (stereo not shown)	Sclerotinia sclerotinia	1.0
CC(Br)C(C)OP1(=S)OC(C)C(C)S1 (stereo not shown)	Sclerotinia sclerotinia	1.0
S=P1(OCCCl)OCCS1 (stereo not shown)	Sclerotinia sclerotinia	0.0
CC(I)COP1(=S)OC(C)C(C)S1 (stereo not shown)	Sclerotinia sclerotinia	0.0
CC(Br)COP1(=S)OCC(C)S1 (stereo not shown)	Sclerotinia sclerotinia	0.0
CC(CBr)OP1(=S)OC(C)C(C)S1 (stereo not shown)	Sclerotinia sclerotinia	1.0
CC1OP(=S)(OCCCl)SC1C (stereo not shown)	Sclerotinia sclerotinia	1.0
CC(Cl)C(C)OP1(=S)OCCS1 (stereo not shown)	Sclerotinia sclerotinia	1.0
